Record form. Attribute: pKd. Fill in for each entry.
Molecular target: KIT(DKIN) (Homo sapiens, UniProt P10721)
Construct: KIT(DKIN); made in house
Sequence (P10721 589-937 limits assumed): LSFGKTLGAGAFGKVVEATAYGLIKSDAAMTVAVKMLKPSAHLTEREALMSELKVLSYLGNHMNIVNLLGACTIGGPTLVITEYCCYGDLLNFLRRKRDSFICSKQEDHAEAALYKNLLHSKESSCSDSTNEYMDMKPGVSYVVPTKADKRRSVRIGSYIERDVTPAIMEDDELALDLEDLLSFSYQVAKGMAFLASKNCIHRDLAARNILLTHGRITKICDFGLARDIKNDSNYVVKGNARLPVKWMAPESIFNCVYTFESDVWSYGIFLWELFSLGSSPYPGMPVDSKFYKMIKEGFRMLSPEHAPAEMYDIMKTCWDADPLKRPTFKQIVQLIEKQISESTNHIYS
Experiment: Binding constant (Kd) measurement, phage-displayed kinase competition binding assay: KIT(DKIN)
pKd: −log10 of the molar value.

Below, 3 molecules whose answers are already recorded.
                               given_smiles                                    system  property_measured  measured_result
0   C=CCOc1ccc(NC(=O)Nc2cc(C(C)(C)C)no2)cc1  KIT(DKIN) (Homo sapiens, UniProt P10721)                pKd           > 7.00
1  CC(C)(C)c1cc(NC(=O)Nc2ccc(NC(=O)c3ccccc3Cl)cc2)no1  KIT(DKIN) (Homo sapiens, UniProt P10721)                pKd           > 7.00
2  CC(C)(C)c1cc(NC(=O)Nc2ccc(OCc3ccccc3Cl)cc2)no1  KIT(DKIN) (Homo sapiens, UniProt P10721)                pKd           > 7.00

Kindly give each listed record's pKd.
1. CC(C)(C)c1cc(NC(=O)Nc2ccc(OCCCc3ccncc3)cc2)no1
2. CC(C)(C)c1cc(NC(=O)Nc2ccc(CCc3ccc(N)cc3)cc2)no1
3. CCOC(=O)CCc1c(C)[nH]c(C(=O)Nc2ccc(NC(=O)Nc3cc(C(C)(C)C)on3)cc2)c1C

**A:**
1. > 7.00
2. > 7.00
3. 6.00 to 7.00

Kindly give each listed record's pKd.
1. CC(C)(C)c1cc(NC(=O)Nc2ccc(OCc3ccc(F)cc3)cc2)no1
2. Cc1ccc(S(=O)(=O)Nc2ccc(NC(=O)Nc3cc(C(C)(C)C)on3)cc2)cc1

**A:**
> 7.00
5.00 to 6.00

* * *

Target: KIT(JMminus,D816V) (Homo sapiens, UniProt P10721, D816V)
Construct: KIT(JMminus,D816V); made in house
Sequence (P10721 589-937 D816V limits assumed): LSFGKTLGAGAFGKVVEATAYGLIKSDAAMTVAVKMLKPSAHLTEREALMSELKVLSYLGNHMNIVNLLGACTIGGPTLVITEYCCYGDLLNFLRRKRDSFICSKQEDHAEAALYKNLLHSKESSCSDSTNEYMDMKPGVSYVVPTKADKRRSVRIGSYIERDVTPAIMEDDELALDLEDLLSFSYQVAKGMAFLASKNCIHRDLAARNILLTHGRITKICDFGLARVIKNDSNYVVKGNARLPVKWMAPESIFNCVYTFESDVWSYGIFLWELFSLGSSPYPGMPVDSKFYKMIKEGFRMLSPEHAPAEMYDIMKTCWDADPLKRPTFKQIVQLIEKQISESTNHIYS
Test: Binding constant (Kd) measurement, phage-displayed kinase competition binding assay: KIT(JMminus,D816V)
Excerpt: The term “ND” represents non-determined values.
pKd: −log10 of the molar value.
Record form. Attribute: pKd. Fill in for each entry.

>>> df
                                   compound  property_measured  measured_result
0  CC(C)(C)c1cc(NC(=O)Nc2ccc(OCC3CC3)cc2)no1 [Compound G37]                pKd     5.00 to 6.00

Kindly give each listed record's pKd.
1. CC(C)(C)c1cc(NC(=O)Nc2ccc(NC(=O)c3ncccc3O)cc2)no1 [Compound N134]
2. CC(C)(C)c1cc(NC(=O)Nc2ccc(OCc3ccccc3F)cc2)no1 [Compound G12]

**A:**
1: 6.00 to 7.00; 2: 5.00 to 6.00

* * *

Record: pKd reported on KIT(JMminus) (Homo sapiens, UniProt P10721).
pKd: −log10 of the molar value.

Below, 5 compounds whose answers are already recorded.
>>> df
                                   compound  property_measured  measured_result
0  CC(C)(C)c1cc(NC(=O)Nc2ccc(NC(=O)c3cccc(F)n3)cc2)no1                pKd           > 7.00
1  COc1cc(OC)nc(C2CCCCC2C(=O)Nc2ccc(NC(=O)Nc3cc(C(C)(C)C)on3)cc2)n1 (stereo not shown)                pKd           > 7.00
2  CC(C)(C)c1cc(NC(=O)Nc2ccc(NC(=O)c3cc4cccnc4nc3C(F)(F)F)cc2)no1                pKd     6.00 to 7.00
3  CC(C)(C)c1cc(NC(=O)Nc2ccc(NC(=O)c3cccc(Cl)n3)cc2)no1                pKd           > 7.00
4  CC(C)(C)c1cc(NC(=O)Nc2ccc(NC(=O)c3cc4cc(F)cc(S(C)(=O)=O)c4[nH]3)cc2)no1                pKd     6.00 to 7.00

Kindly give each listed record's pKd.
1. CC(C)(C)c1cc(NC(=O)Nc2ccc(NC(=O)c3cc(Cl)nnc3Cl)cc2)no1
2. CC(C)(C)c1cc(NC(=O)Nc2ccc(NC(=O)c3ccc(Oc4ccnc(C(=O)O)c4)cc3)cc2)no1

**A:**
5.00 to 6.00
> 7.00

* * *

Record form. Attribute: Kd. Fill in for each entry.
Target: KIT(JMminus) (Homo sapiens, UniProt P10721)
Construct: KIT(JMminus); made in house
Experiment: Binding constant (Kd) measurement, phage-displayed kinase competition binding assay: KIT(JMminus)

Below, 3 compounds whose answers are already recorded.
                               given_smiles                                    system  measured_result
0  COc1cc(NC(=O)CCC(=O)N2CCNC(=O)CC2)ccc1NC(=O)Nc1cc(C(C)(C)C)on1  KIT(JMminus) (Homo sapiens, UniProt P10721)   100 to 1000 nM
1  Cc1cnc(C(=O)Nc2ccc(NC(=O)Nc3cc(C(C)(C)C)on3)cc2)c(C(=O)O)n1  KIT(JMminus) (Homo sapiens, UniProt P10721)         < 100 nM
2  CC(C)(C)c1cc(NC(=O)Nc2ccc(NC(=O)Cc3sc(-c4ccc(Cl)cc4)nc3-c3ccccc3)cc2)no1  KIT(JMminus) (Homo sapiens, UniProt P10721)         < 100 nM

// moving on: another record for Kd
**Q:** For the compound `CC(C)(C)c1cc(NC(=O)Nc2ccc(NC(=O)c3cc(O)c4cccc(O)c4n3)cc2)no1` , give its measured Kd value.
**A:** 1000 to 10000 nM

* * *

Record: Kd reported on UniProt:P10721.

>>> df
                                   compound   measured_result
0  CC(C)(C)c1cc(NC(=O)Nc2ccc(C(=O)Nc3ccc(F)cc3F)cc2)no1    100 to 1000 nM
1  CN(Cc1cccc([N+](=O)[O-])c1)C(=O)Nc1cc(C(C)(C)C)on1  1000 to 10000 nM

Kindly give each listed record's Kd.
1. CC(C)(C)c1cc(NC(=O)Nc2ccc(OCc3ccc(C(F)(F)F)cc3)cc2)no1
2. Cc1ccc(-n2nc(C(C)(C)C)cc2NC(=O)Nc2cc(C(C)(C)C)on2)cc1
3. CC(C)(C)c1cc(NC(=O)Nc2ccc(C(=O)Nc3ccccc3)cc2)no1
4. COc1nc(C)cc(C)c1C(=O)Nc1ccc(NC(=O)Nc2cc(C(C)(C)C)on2)cc1
5. CC(C)(C)c1cc(NC(=O)Nc2ccc(OCCc3ccncc3)cc2)no1
6. CC(C)(C)c1cc(NC(=O)Nc2ccc(NC(=O)c3cnnc4ccccc34)cc2)no1

**A:**
1. 100 to 1000 nM
2. > 10000 nM
3. 100 to 1000 nM
4. 1000 to 10000 nM
5. < 100 nM
6. 100 to 1000 nM

* * *

Record: pKd reported on KIT(DKIN) (Homo sapiens, UniProt P10721).
pKd: −log10 of the molar value.

>>> df
                                   compound  measured_result
0  CC(C)(C)c1cc(NC(=O)Nc2ccc(-c3nc(-c4ccc(Cl)cc4)no3)cc2)no1     6.00 to 7.00
1  CC(C)(C)c1cc(NC(=O)Nc2ccc(NC(=O)c3c(F)cccc3C(F)(F)F)cc2)no1     5.00 to 6.00
2  CC(C)(C)c1cc(NC(=O)Nc2ccc(NC(=O)c3cccc4nsnc34)cc2)no1     6.00 to 7.00
3  CC(C)(C)c1cc(NC(=O)Nc2ccc(OCc3ccccc3F)cc2)no1     6.00 to 7.00
4  CC(C)(C)c1cc(NC(=O)Nc2ccc(NC(=O)c3ccc4ncccc4c3)cc2)no1     6.00 to 7.00

Kindly give each listed record's pKd.
1. CC(C)(CO)c1cc(NC(=O)Nc2ccc(OCc3ccccc3)cc2)on1
2. CC(C)(C)c1cc(NC(=O)Nc2ccc(NC(=O)c3cc4cc(Br)ccc4s3)cc2)no1
3. O=C(Nc1ccc(Cl)cc1)Nc1cc(C(F)(F)F)cc(Cl)n1
4. CC(C)(C)c1cc(NC(=O)Nc2ccc(NC(=O)Cc3ccc(-c4ccccc4)cc3)cc2)no1

**A:**
1: 6.00 to 7.00; 2: 5.00 to 6.00; 3: 6.00 to 7.00; 4: 6.00 to 7.00

* * *

Target: KIT(DKIN) (Homo sapiens)
Property Measured: Kd

Below, 10 compounds whose answers are already recorded.
>>> print(df.to_string())
                                   compound  property_measured   measured_result
0  Cc1nnsc1C(=O)Nc1ccc(NC(=O)Nc2cc(C(C)(C)C)on2)cc1 [Compound N18]                 Kd  1000 to 10000 nM
1  CC(C)(C)c1cc(NC(=O)Nc2ccc(NC(=O)c3ccc4ccccc4n3)cc2)no1 [Compound N143]                 Kd          < 100 nM
2  Cn1nc(C(C)(C)C)cc1NC(=O)Nc1ccc(OCc2ccccc2)cc1 [Compound H2]                 Kd    100 to 1000 nM
3  COc1ccc(NC(=O)Nc2cc(C(C)(C)C)no2)cc1 [Compound A30]                 Kd    100 to 1000 nM
4  CC(C)(C)c1cc(NC(=O)Nc2ccc(OCc3ccccc3C(F)(F)F)cc2)no1 [Compound G4]                 Kd    100 to 1000 nM
5  CC(C)(C)c1cc(NC(=O)Nc2ccc(NC(=O)c3ncc[nH]3)cc2)no1 [Compound N13]                 Kd          < 100 nM
6  CC(C)(C)c1cc(NC(=O)Nc2ccc(OCCN3CCC(O)CC3)cc2)no1 [Compound G48]                 Kd        > 10000 nM
7  Cc1cccnc1-c1noc(-c2ccc(NC(=O)Nc3cc(C(C)(C)C)on3)cc2)n1 [Compound P4]                 Kd    100 to 1000 nM
8  CC(C)(C)c1cc(NC(=O)Nc2ccc(NC(=O)/C=C/c3ccccc3Cl)cc2)no1 [Compound N40]                 Kd    100 to 1000 nM
9  CC(C)(C)c1cc(NC(=O)Nc2ccc(NC(=O)c3cnc4ccccc4c3)cc2)no1 [Compound N108]                 Kd    100 to 1000 nM

Kindly give each listed record's Kd.
1. COc1cccc(-c2ccc(C(=O)Nc3ccc(NC(=O)Nc4cc(C(C)(C)C)on4)cc3)o2)c1 [Compound N105]
2. CC(C)(C)c1cc(NC(=O)Nc2ccc(NS(=O)(=O)c3ccccc3)cc2)no1 [Compound V1]
3. CC(C)(C)c1cc(NC(=O)Nc2ccc(OCCN3CCSCC3)cc2)no1 [Compound G53]
4. Cc1ccc(NC(=O)Nc2cc(C(C)(C)C)on2)cc1 [Compound A33]

**A:**
1: 100 to 1000 nM; 2: 1000 to 10000 nM; 3: 1000 to 10000 nM; 4: 100 to 1000 nM

Kindly give each listed record's Kd.
1. CC(C)(C)c1cc(NC(=O)Nc2ccc(NC(=O)c3ccncc3)cc2)no1 [Compound N167]
2. Cc1ccc(NC(=O)Nc2cc(C(F)(F)F)cc(Cl)n2)cc1 [Compound W1]
3. CNC(=O)c1ccc(NC(=O)Nc2cc(C(C)(C)C)on2)cc1 [Compound N85]
4. C=C/C(=C\C=C\Cl)NC(=O)Nc1ccc(C(=O)OCCOC)cc1 [Compound Z54]

**A:**
1: 100 to 1000 nM; 2: 100 to 1000 nM; 3: 100 to 1000 nM; 4: 1000 to 10000 nM
